Assay: ATG_FoxO_CIS: Attagene CIS-FACTORIAL HepG2 Assay for human Forkhead box O (FoxO) (AID 2282943)
Conditions: HepG2 Attagene cis-reporter, FoxO element, mRNA; actives raise or lower the signal
Activity calls are given as the source filed them. The calls were made as follows: active = hit-call score of the fitted dose curve at least 0.9, where 1 is the maximum; inactive = score below 0.9.
Tick one outcome: true for active, false for inactive

A selection of reference data follows.
CN(C)c1ccc(C(=C2C=CC(=[N+](C)C)C=C2)c2ccccc2)cc1 = false
O=C1OC(=O)c2cc(-c3ccc4c(c3)C(=O)OC4=O)ccc21 = false
CCCCCCCCC1CCC(=O)O1 (centres undefined) = false
CCCCCCCCC(C)=O = false
C=COC(=O)C(C)(C)CCCCCC = false

Request: Just curious, what result did `NCCN` get here?
Response: false

Request: Test call, this compound: Nc1ccn([C@@H]2O[C@H](CO)[C@@H](O)C2O)c(=O)n1 (some centres undefined)
Response: false

Request: Give the logged outcome of this assay for the following compound: `CCc1cccc(CC)c1NC(=O)C(=O)O`
Response: false

Request: Per the records of this test, what outcome belongs to `Oc1cc2ccccc2cc1O` ?
Response: false

Request: Give the logged outcome of this assay for the following compound: `O=S(=O)(O)C(F)(F)C(F)(F)C(F)(F)C(F)(F)C(F)(F)C(F)(F)C(F)(F)C(F)(F)C(F)(F)C(F)(F)F`
Response: false
